# target desc: Recombinant human soluble BACE-1 catalytic domain (Homo sapiens (Human), UniProt P56817)
# Sequence (P56817 75-416): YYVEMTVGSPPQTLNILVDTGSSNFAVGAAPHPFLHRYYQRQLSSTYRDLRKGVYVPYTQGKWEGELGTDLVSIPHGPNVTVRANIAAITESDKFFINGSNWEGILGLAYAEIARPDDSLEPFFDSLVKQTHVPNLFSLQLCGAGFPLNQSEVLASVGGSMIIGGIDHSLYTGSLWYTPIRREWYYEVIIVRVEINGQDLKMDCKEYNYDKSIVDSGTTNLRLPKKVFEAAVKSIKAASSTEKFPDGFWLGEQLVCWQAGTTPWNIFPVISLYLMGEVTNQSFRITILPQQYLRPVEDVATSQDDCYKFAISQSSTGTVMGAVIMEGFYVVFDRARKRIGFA
# measurement protocol: BACE-1 Ki Assay (BACE-1 HTRF FRET Assay)
# Format: biochemical
# assay conditions: Table 3; comparator compounds of WO2011044181; read-out: BACE-1 Ki Nm
value type: Ki (nM)

Example cases with answers are listed next.
COc1cccnc1Nc1cc([C@]2(C)CS(=O)(=O)N(C)C(=N)N2)ccn1 [166 (Table XXI), reference compound] = 41
CN1C(=N)N[C@](C)(c2cccc(Nc3ccccc3C#N)n2)CS1(=O)=O [103b (Table IXa), reference compound] = 514
COc1ccccc1Nc1cccc([C@]2(C)CS(=O)(=O)N(C)C(=N)N2)n1 [162 (Scheme 40), reference compound] = 3760

[P] COc1cccnc1Nc1cccc([C@]2(C)CS(=O)(=O)N(C)C(=N)N2)n1 [165 (as listed on page 224), reference compound]
[Q] CN1C(=N)N[C@](C)(c2cccc(Nc3ncccc3C#N)n2)CS1(=O)=O [164 (Table XXI), reference compound]
[R] COc1ccccc1Nc1cccc([C@]2(C)CS(=O)(=O)N(C)C(=N)N2)c1 [103a (Table IXa), reference compound]
In: Ascending by Ki, please. Give the labels in the order specified.
Out: R, Q, P
(R: 69 nM, Q: 508 nM, P: 2590 nM)

* * *

# target desc: Recombinant human soluble BACE-1 catalytic domain (Homo sapiens (Human))
# measurement protocol: BACE-1 Ki Assay (BACE-1 HTRF FRET Assay)
# Type: biochemical
# assay conditions: Table 2; read-out: BACE1 Ki
pKi: −log10 of the molar value.
value type: pKi

COc1cnc2c(Nc3ccc(F)c([C@]4(C)CS(=O)(=O)N(C)C(=N)N4)c3)nccc2c1 = 7.92
CN1C(=N)N[C@](C)(c2cc(Nc3nccc4nc(C(F)F)cnc34)ccc2F)CS1(=O)=O = 8.28
CN1C(=N)N[C@](C)(c2cc(Nc3nccc4cc(F)cnc34)ccc2F)CS1(=O)=O = 8.68
CN1C(=N)N[C@](C)(c2cc(Nc3ncnc4cc(C#N)cnc34)ccc2F)CS1(=O)=O = 8.49
CN1C(=N)N[C@](C)(c2cc(Nc3nccc4cc(C#N)cnc34)ccc2F)CS1(=O)=O = 8.89

[I] CN1C(=N)N[C@](C)(c2c(F)ccc(Nc3nccc4cc(C#N)cnc34)c2F)CS1(=O)=O
[II] COc1cnc2c(Nc3ccc(F)c([C@]4(C)CS(=O)(=O)N(C)C(=N)N4)c3)ncnc2c1
In: Out of I and II , name the one with the higher pKi. Give the chosen item's label as your response.
Out: I

* * *

# target desc: Recombinant human soluble BACE-1 catalytic domain (Homo sapiens (Human))
# measurement protocol: BACE-1 Ki Assay (BACE-1 HTRF FRET Assay)
# Assay type: biochemical
# assay conditions: Table 1; Ki calculated from IC50 with Cheng-Prusoff equation; read-out: BACE1 Ki
pKi: −log10 of the molar value.
value type: pKi

[I] COc1cnc2c(Nc3ccc(F)c([C@]4(C)CS(=O)(=O)N(C)C(=N)N4)c3)nccc2n1
[II] CN1C(=N)N[C@](C)(c2cc(Nc3nccc4nc(C(F)F)cnc34)ccc2F)CS1(=O)=O
In: pKi comparison. Which is larger, I or II ? To answer, give the label that identifies your chosen option.
Out: I

[1] COc1cnc2c(Nc3cc([C@]4(C)CS(=O)(=O)N(C)C(=N)N4)c(F)cn3)nccc2c1
[2] CN1C(=N)N[C@](C)(c2cc(N[C@H]3CCc4cc(C#N)cnc43)ccc2F)CS1(=O)=O
In: When 1 and 2 are compared, which has the higher number for pKi? State the label of the item chosen.
Out: 2
(2: 8.51, 1: 7.79)

[1] CN1C(=N)N[C@](C)(c2cc(N[C@@H]3CCc4cc(C#N)cnc43)ccc2F)CS1(=O)=O
[2] CN1C(=N)N[C@](C)(c2cc(Nc3ncnc4cc(C#N)cnc34)ccc2F)CS1(=O)=O
In: Lab log: flag the item ( 1 or 2 ) with the smaller pKi figure. Please identify the chosen entry by its label.
Out: 1

* * *

# target desc: purified human autoBACE-2 (Homo sapiens (Human), UniProt Q9Y5Z0)
# Sequence (Q9Y5Z0 63-473): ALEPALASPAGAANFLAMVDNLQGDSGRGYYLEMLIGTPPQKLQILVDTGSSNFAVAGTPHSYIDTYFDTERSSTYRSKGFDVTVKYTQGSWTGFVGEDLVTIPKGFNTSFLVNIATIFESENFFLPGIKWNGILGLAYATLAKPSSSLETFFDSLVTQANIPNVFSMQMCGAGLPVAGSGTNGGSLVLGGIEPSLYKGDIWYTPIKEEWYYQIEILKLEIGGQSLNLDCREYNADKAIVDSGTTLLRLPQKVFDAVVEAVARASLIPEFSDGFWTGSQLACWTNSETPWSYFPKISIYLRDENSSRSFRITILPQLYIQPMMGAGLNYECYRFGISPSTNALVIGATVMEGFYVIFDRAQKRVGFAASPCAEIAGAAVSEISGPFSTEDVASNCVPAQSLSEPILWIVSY
value type: Ki (nM)

Worked set:
CN1C(=N)N[C@](C)(c2cc(N[C@@H]3CCc4ncc(C(F)(F)F)cc43)ccc2F)CS1(=O)=O [Example 16] = 242
COc1cnc2c(Nc3ccc(F)c([C@]4(C)CS(=O)(=O)N(C)C(=N)N4)c3)ncnc2n1 [Example 13] = 15.4
CN1C(=N)N[C@](C)(c2cc(Nc3nccc4cc(Cl)cnc34)ccc2F)CS1(=O)=O [Example 1] = 0.22
CN1C(=N)N[C@](C)(c2cc(Nc3nccc4nc(C(F)F)cnc34)ccc2F)CS1(=O)=O [Example 12] = 1.8
CN1C(=N)N[C@](C)(c2cc(Nc3ncnc4cc(C#N)cnc34)ccc2F)CS1(=O)=O [Example 7] = 3
CN1C(=N)N[C@](C)(c2cc(Nc3nccc4cc(C#N)cnc34)ccc2F)CS1(=O)=O [Example 6] = 0.46
CN1C(=N)N[C@](C)(c2cc(N[C@H]3CCCc4cc(Br)cnc43)ccc2F)CS1(=O)=O [Example 20] = 43.1

[a] CN1C(=N)N[C@](C)(c2cc(Nc3ncnc4cc(Br)cnc34)ccc2F)CS1(=O)=O [Example 3]
[b] CN1C(=N)N[C@](C)(c2cc(Nc3nccc4cc(Br)cnc34)ccc2F)CS1(=O)=O [Example 2]
In: Problem: Given the entries a and b , determine which has the lower reported Ki. # answer = label of selected item
Out: b
(b: 0.38 nM, a: 0.81 nM)

* * *

# target desc: Recombinant human soluble BACE-1 catalytic domain (Homo sapiens (Human), UniProt P56817)
# measurement protocol: BACE-1 Ki Assay (BACE-1 HTRF FRET Assay)
# Type: biochemical
# assay conditions: Table 1; Ki calculated from IC50 with Cheng-Prusoff equation; read-out: BACE1 Ki
pKi: −log10 of the molar value.
value type: pKi

COc1cnc2c(Nc3ccc(F)c([C@]4(C)CS(=O)(=O)N(C)C(=N)N4)c3)ncnc2n1 = 7.97
CN1C(=N)N[C@](C)(c2cc(N[C@H]3CCc4cc(Cl)ccc43)ccc2F)CS1(=O)=O = 7.99
COc1cnc2c(Nc3ccc(F)c([C@]4(C)CS(=O)(=O)N(C)C(=N)N4)c3)nccc2c1 = 7.93

[P] CN1C(=N)N[C@](C)(c2cc(Nc3nccc4cc(C#N)cnc34)ccc2F)CS1(=O)=O
[Q] CN1C(=N)N[C@](C)(c2cc(N[C@H]3CCCc4cc(Br)cnc43)ccc2F)CS1(=O)=O
In: Which is greater in pKi, the first item P or the second item Q ? Refer to your chosen item by its label in the answer.
Out: P

[P] CN1C(=N)N[C@](C)(c2cc(Nc3ncnc4cc(Br)cnc34)ccc2F)CS1(=O)=O
[Q] CN1C(=N)N[C@](C)(c2cc(N[C@@H]3CCc4ncc(C(F)(F)F)cc43)ccc2F)CS1(=O)=O
[R] CN1C(=N)N[C@](C)(c2cc(Nc3nccc4cc(Br)cnc34)ccc2F)CS1(=O)=O
In: // smallest pKi at index 0, largest at the end The reply should contain the labels ordered as requested.
Out: Q, P, R
(Q: 7.24, P: 8.55, R: 8.82)

[1] CN1C(=N)N[C@](C)(c2cc(N[C@@H]3CCc4ncc(Cl)cc43)ccc2F)CS1(=O)=O
[2] COc1cnc2c(Nc3ccc(F)c([C@]4(C)CS(=O)(=O)N(C)C(=N)N4)c3)ncnc2c1
In: // compare measured pKi between 1 and 2 ; output the lower one Use the label to indicate which entry you chose.
Out: 1
